# Tested on: C2A
# protocol.description: qHTS profiling for inhibitors of Plasmodium falciparum proliferation (AID 504749); further: nearly all actives have a fitted effect of over 60% in size
# stated.conditions: P. falciparum in erythrocytes, SYBR Green DNA, 72 h; series mostly up to 28.7 µM
Results filed as inconclusive are left out. Active and inactive are the calls of the source. The call rests on the fitted dose curve; in most records, active means well fitted inhibition curve with a large enough effect; inconclusive means small, poorly fitted or top-dose-only effect; inactive means flat fitted curve, though single readings scatter.
Parameter call: string, one of TRUE for active, FALSE for inactive

Reference set, count: 8
{"compound": "COc1cccc(OC)c1C(=O)NC1C(=O)N2C1SC(C)(C)C2C(=O)O (centres undefined)", "class.label": "FALSE"}
{"compound": "CC(CCC(=O)O)C1CCC2C3C(=O)C[C@@H]4CC(=O)CC[C@@]4(C)C3CC(=O)[C@]12C (some centres undefined)", "class.label": "FALSE"}
{"compound": "C=C1/C(=C\\C=C2/CCC[C@]3(C)[C@@H]([C@H](C)/C=C/[C@@H](O)C4CC4)CC[C@@H]23)C[C@@H](O)C[C@@H]1O", "class.label": "FALSE"}
{"compound": "CC(=O)OCC(=O)[C@@]1(O)CCC2C3C[C@H](C)C4=CC(=O)C=CC4(C)C3C(O)CC21C (some centres undefined)", "class.label": "FALSE"}
{"compound": "Cc1cc(O)c2c(c1)OC1(C)CCC3C(C)(C)CCCC34COC2C14 (centres undefined)", "class.label": "FALSE"}
{"compound": "CC(C)C(=O)OCC(=O)[C@@]12OC(C3CCCCC3)O[C@@H]1CC1C3CCC4=CC(=O)C=C[C@]4(C)C3[C@@H](O)C[C@@]12C (some centres undefined)", "class.label": "TRUE"}
{"compound": "C[C@]12CC[C@@H]3c4ccc(O)cc4CC[C@H]3[C@@H]1C[C@H](O)C2O (some centres undefined)", "class.label": "FALSE"}
{"compound": "NC(=O)NC(CCC(=O)O)C(=O)O (centres undefined)", "class.label": "FALSE"}

Below: the item to evaluate.
Tell me the assay call for O=C1NC(=O)C2C3C=CC(C3)C12 (centres undefined) please. FALSE
